subject_of_test: Prostaglandin G/H synthase 1 (Homo sapiens, UniProt P23219)
Sequence (P23219 whole entry): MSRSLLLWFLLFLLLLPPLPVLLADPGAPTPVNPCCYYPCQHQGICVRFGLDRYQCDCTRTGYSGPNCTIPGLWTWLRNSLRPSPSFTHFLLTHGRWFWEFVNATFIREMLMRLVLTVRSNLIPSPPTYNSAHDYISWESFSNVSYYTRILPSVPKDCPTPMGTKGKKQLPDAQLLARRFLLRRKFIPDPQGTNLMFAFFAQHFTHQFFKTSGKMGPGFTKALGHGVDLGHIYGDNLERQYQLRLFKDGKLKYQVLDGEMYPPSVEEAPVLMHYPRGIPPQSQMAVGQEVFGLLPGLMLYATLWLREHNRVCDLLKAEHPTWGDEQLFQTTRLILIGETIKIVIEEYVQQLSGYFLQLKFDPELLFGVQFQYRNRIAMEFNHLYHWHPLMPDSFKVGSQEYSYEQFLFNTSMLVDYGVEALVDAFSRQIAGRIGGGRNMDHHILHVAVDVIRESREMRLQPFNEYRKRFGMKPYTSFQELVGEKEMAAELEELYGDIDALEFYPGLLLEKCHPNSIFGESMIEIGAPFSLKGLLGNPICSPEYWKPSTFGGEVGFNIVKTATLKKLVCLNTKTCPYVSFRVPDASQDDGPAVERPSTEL
Format: functional
Listing: AC50 of selected compounds

Some solved cases for reference:
• CC1(C)S[C@@H]2[C@H](NC(=O)[C@H](NC(=O)N3CCN(S(C)(=O)=O)C3=O)c3ccccc3)C(=O)N2[C@H]1C(=O)O = > 30 µM
• N[C@@H](CSSC[C@H](N)C(=O)O)C(=O)O = > 30 µM
• CN(C)c1cc(CNCC(C)(C)C)c(O)c2c1C[C@H]1C[C@H]3[C@H](N(C)C)C(O)=C(C(N)=O)C(=O)[C@@]3(O)C(O)=C1C2=O = 0.25 µM
• CO[C@@]1(NC(=O)CSCC#N)C(=O)N2C(C(=O)O)=C(CSc3nnnn3C)CS[C@@H]21 = > 30 µM
• CCN(CC)CCOC(=O)C(Cc1cccc2ccccc12)CC1CCCO1 (stereo not drawn) = > 30 µM

Input line: Sample C[C@@H](O)[C@H]1C(=O)N2C(C(=O)[O-])=C(SC3Cn4cnc[n+]4C3)[C@H](C)[C@H]12 (stereo partly drawn) — what was its AC50?
Output line: > 30 µM

Input line: // returns reported AC50 for input `NC(=O)c1nc(F)c[nH]c1=O`
Output line: > 30 µM

Input line: So what does the record say about AC50 for `CCCCC/C=C\C/C=C\C/C=C\CCCCC(=O)O` ?
Output line: 4.91 µM

* * *

subject_of_test: cGMP-inhibited 3',5'-cyclic phosphodiesterase 3A (Homo sapiens)
Sequence (Q14432 whole entry): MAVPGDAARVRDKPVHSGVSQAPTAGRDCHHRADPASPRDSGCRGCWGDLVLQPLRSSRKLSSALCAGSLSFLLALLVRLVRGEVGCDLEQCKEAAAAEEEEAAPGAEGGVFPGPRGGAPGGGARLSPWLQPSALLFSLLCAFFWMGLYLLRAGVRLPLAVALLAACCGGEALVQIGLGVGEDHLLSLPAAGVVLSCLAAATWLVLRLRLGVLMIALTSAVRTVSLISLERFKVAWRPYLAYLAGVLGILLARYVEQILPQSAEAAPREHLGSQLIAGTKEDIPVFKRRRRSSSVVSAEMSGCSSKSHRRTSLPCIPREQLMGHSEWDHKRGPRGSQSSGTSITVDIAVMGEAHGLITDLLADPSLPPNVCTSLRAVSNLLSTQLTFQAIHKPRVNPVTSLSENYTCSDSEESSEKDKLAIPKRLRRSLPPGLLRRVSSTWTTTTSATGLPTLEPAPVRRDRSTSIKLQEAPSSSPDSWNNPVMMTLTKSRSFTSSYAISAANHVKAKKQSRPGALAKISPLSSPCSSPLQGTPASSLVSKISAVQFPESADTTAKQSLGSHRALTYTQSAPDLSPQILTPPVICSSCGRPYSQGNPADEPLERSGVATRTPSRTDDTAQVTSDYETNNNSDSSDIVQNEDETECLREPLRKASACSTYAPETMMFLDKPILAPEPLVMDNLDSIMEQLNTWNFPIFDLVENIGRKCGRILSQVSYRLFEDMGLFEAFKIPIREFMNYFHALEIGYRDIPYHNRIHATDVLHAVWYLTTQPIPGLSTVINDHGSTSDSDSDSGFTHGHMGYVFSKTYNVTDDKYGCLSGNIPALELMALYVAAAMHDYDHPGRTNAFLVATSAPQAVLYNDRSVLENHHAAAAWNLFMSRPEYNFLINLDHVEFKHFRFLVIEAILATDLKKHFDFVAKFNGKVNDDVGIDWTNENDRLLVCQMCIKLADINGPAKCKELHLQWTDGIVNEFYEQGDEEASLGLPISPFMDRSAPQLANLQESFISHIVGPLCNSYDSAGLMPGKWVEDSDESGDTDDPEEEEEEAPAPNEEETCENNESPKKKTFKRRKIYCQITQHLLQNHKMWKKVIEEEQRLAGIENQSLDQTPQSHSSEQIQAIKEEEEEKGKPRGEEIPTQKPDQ
Format: functional
attribute_measured: AC50

Check out these entries, answers already filled in.
• CN(C)CCC(c1ccccc1)c1ccccn1 (stereo not drawn) [PHENIRAMINE] = > 30 µM
• CCCC(=O)O[C@H]1[C@H](C)O[C@@H](O[C@H]2[C@H](N(C)C)[C@@H](O)[C@H](O[C@H]3[C@@H](CC=O)C[C@@H](C)[C@@H](O)/C=C/C=C/C[C@@H](C)OC(=O)C[C@@H](O)[C@@H]3OC)O[C@@H]2C)C[C@@]1(C)OC(=O)CC [ROKITAMYCIN] = > 10 µM

Please look at the following compound next.
Input line: Returns the measured AC50 for the input compound. Input: CCN(CC)CCOC(=O)C(Cc1cccc2ccccc12)CC1CCCO1 (stereo not drawn) [NAFRONYL]
Output line: > 30 µM

* * *

This section presents compounds with their documented AC50 values.
subject_of_test: Amine oxidase [flavin-containing] A (Homo sapiens)
Sequence (P21397 whole entry): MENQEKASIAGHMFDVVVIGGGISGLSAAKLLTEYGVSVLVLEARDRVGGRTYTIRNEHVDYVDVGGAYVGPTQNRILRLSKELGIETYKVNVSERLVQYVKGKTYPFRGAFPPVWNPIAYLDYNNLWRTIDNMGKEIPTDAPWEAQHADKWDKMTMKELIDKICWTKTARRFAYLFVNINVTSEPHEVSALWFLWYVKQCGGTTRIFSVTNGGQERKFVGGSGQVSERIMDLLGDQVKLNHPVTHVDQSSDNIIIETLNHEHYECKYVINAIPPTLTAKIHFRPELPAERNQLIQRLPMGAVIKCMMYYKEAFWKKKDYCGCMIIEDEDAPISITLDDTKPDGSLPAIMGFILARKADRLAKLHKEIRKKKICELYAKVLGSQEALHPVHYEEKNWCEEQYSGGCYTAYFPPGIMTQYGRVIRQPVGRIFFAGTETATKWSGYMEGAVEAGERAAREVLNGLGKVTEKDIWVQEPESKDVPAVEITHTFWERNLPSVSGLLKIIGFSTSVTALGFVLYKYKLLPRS
Format: functional

Example cases with answers are listed next.
- COc1cc(OC)c(C(=O)CCCN2CCCC2)c(OC)c1 [BUFLOMEDIL]: > 30 µM
- O=C(O)c1cc(O)c2c3nc4ccccc4oc-3cc(=O)c2n1 [PIRENOXINE]: 2.2 µM
- O=c1oc2ccccc2c(O)c1Cc1c(O)c2ccccc2oc1=O [DICUMAROL]: > 10 µM
- CC[C@H]1OC(=O)[C@H](C)[C@@H](O[C@H]2C[C@@](C)(OC)[C@@H](O)[C@H](C)O2)[C@H](C)[C@@H](O[C@@H]2O[C@H](C)C[C@H](N(C)C)[C@H]2O)[C@](C)(OC)C[C@@H](C)C(=O)[C@H](C)[C@@H](O)[C@]1(C)O [CLARITHROMYCIN]: > 30 µM
- N#Cc1ccccc1-c1cc(-c2ccccn2)cn(-c2ccccc2)c1=O: > 30 µM
- CNC[C@H](O)c1cccc(O)c1 [PHENYLEPHRINE]: > 10 µM

Input line: API: value(readout= AC50, system= Amine oxidase [flavin-containing] A (Homo sapiens), query= `C=C[C@@]1(C)CC(=O)[C@]2(O)[C@@]3(C)[C@@H](O)CCC(C)(C)[C@@H]3[C@H](OC(=O)CCN(C)C)[C@H](OC(C)=O)[C@@]2(C)O1` ); note: assay procedure not described here
Output line: > 30 µM

* * *

subject_of_test: UniProt:P21728
Sequence (P21728 whole entry): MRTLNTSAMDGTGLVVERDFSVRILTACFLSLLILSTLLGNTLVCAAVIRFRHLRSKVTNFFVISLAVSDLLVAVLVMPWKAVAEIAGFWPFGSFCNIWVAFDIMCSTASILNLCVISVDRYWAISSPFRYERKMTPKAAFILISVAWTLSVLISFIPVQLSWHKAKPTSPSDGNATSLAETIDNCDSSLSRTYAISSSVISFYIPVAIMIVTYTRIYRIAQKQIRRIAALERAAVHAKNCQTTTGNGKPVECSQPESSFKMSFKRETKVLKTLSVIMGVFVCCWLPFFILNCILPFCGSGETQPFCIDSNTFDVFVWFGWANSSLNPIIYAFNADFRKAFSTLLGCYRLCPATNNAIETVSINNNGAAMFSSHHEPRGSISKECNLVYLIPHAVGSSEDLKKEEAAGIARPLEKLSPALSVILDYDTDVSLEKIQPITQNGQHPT
Type: functional, cell-based
attribute_measured: AC50

• CN(C)c1cc(CNCC(C)(C)C)c(O)c2c1C[C@H]1C[C@H]3[C@H](N(C)C)C(O)=C(C(N)=O)C(=O)[C@@]3(O)C(O)=C1C2=O = > 30 µM
• Nc1ccn([C@@H]2O[C@H](CO)[C@@H](O)C2(F)F)c(=O)n1 = > 10 µM
• COc1cc(OC)c(C(=O)CCCN2CCCC2)c(OC)c1 = > 30 µM
• CC1(C)O[C@@H]2[C@@H](CO[C@@]3(COS(N)(=O)=O)OC(C)(C)O[C@@H]23)O1 [TOPIRAMATE] = > 10 µM
• CC[C@H]1OC(=O)[C@H](C)[C@@H](O[C@H]2C[C@@](C)(OC)[C@@H](O)[C@H](C)O2)[C@H](C)[C@@H](O[C@@H]2O[C@H](C)C[C@H](N(C)C)[C@H]2O)[C@](C)(OC)C[C@@H](C)C(=O)[C@H](C)[C@@H](O)[C@]1(C)O = > 30 µM
• COC1=C(OC)C(=O)C(CCCCCCCCCCO)=C(C)C1=O = > 30 µM

Input line: Please report the recorded AC50 for `CCn1cc(C(=O)O)c(=O)c2cc(F)c(N3CCNCC3)nc21` .
Output line: > 10 µM

Input line: Any idea what its AC50 is? The compound is `[H]/N=C(\N/C(=N/[H])NCCCCCCNC(=N)NC(=N)Nc1ccc(Cl)cc1)Nc1ccc(Cl)cc1`
Output line: > 10 µM

Input line: Form field: reported AC50 of `CNC(=O)c1cc(Oc2ccc(NC(=O)Nc3ccc(Cl)c(C(F)(F)F)c3)c(F)c2)ccn1`
Output line: > 30 µM

Input line: Name the recorded AC50 for `CS(=O)(=O)OCCCCOS(C)(=O)=O` .
Output line: > 30 µM

Input line: Give the measured AC50 of Clc1ccc(C(Cn2ccnc2)OCc2ccc(Sc3ccccc3)cc2)c(Cl)c1 (centres undefined) .
Output line: > 30 µM

Input line: What value of AC50 has been recorded for this entry: `Clc1cccc(Cl)c1N=C1NCCN1`
Output line: > 10 µM

Input line: // AC50 lookup, key: `CC(C)C[C@H](CN)CC(=O)O`
Output line: > 30 µM

Input line: Name the reported AC50 value associated with the compound NS(=O)(=O)c1cc(C2(O)NC(=O)c3ccccc32)ccc1Cl (centres undefined)
Output line: > 10 µM

Input line: Tell me the measured AC50 of C[C@@H]1CCC[C@H](C)N1NC(=O)c1ccc(Cl)c(S(N)(=O)=O)c1 [CLOPAMIDE] , please.
Output line: > 30 µM

Input line: // returns reported AC50 for input `CCN(CC)CC(=O)Oc1ccc(NC(C)=O)cc1`
Output line: > 30 µM

* * *

Entries and their AC50
subject_of_test: Beta-1 adrenergic receptor (Homo sapiens, UniProt P08588)
Sequence (P08588 whole entry): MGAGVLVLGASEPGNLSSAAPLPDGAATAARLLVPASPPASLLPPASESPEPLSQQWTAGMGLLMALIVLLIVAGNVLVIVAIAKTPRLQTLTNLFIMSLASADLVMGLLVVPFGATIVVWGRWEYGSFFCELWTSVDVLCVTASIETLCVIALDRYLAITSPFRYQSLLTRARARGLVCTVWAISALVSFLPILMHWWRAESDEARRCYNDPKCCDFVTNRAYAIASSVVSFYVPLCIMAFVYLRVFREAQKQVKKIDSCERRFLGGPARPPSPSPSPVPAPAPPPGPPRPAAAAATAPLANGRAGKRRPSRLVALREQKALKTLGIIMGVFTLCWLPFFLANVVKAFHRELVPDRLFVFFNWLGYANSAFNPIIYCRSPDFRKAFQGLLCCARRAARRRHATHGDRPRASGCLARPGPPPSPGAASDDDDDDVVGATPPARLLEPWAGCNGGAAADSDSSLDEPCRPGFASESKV
Format: functional

See these solved cases before continuing.
• C=C[C@@]1(C)CC(=O)[C@]2(O)[C@@]3(C)[C@@H](O)CCC(C)(C)[C@@H]3[C@H](OC(=O)CCN(C)C)[C@H](OC(C)=O)[C@@]2(C)O1 = > 30 µM
• CC1(C)S[C@@H]2[C@H](NC(=O)[C@H](N)c3ccc(O)cc3)C(=O)N2[C@H]1C(=O)O = > 30 µM
• COc1cc(OC)c(C(=O)CCCN2CCCC2)c(OC)c1 = > 30 µM
• CCOc1cc(CC(=O)N[C@@H](CC(C)C)c2ccccc2N2CCCCC2)ccc1C(=O)O [REPAGLINIDE] = > 30 µM

Input line: Quick one: AC50 of `O=c1oc2ccccc2c(O)c1Cc1c(O)c2ccccc2oc1=O` ?
Output line: > 10 µM

Input line: Need AC50, item Nc1nc2c(c(=O)[nH]1)N(C=O)C(CNc1ccc(C(=O)N[C@@H](CCC(=O)O)C(=O)O)cc1)CN2 (some centres undefined)
Output line: > 30 µM

Input line: I have this compound here, `CCOC(=O)Nc1ccc2c(c1)N(C(=O)CCN1CCOCC1)c1ccccc1S2` , and I need its recorded AC50.
Output line: > 30 µM

Input line: Bench note: what AC50 did `COc1ccc(Cc2nccc3cc(OC)c(OC)cc23)cc1OC` show?
Output line: > 30 µM

Input line: # lookup: AC50 of O=C1Nc2ccc(Cl)cc2C(c2ccccc2)=NC1O (centres undefined)
Output line: > 10 µM

Input line: Recorded AC50 for COCCOC(=O)C1=C(C)NC(C)=C(C(=O)OC/C=C/c2ccccc2)C1c1cccc([N+](=O)[O-])c1 (centres undefined) , please?
Output line: > 30 µM

Input line: I would be grateful if you could share the reported AC50 for `CCCN(CCC)CCc1cccc2c1CC(=O)N2` .
Output line: > 30 µM

Input line: Would you kindly share the measured AC50 for Cc1cc2nc3c(=O)[nH]c(=O)nc-3n(C[C@H](O)[C@H](O)[C@H](O)COP(=O)(O)O)c2cc1C [RIBOFLAVIN 5'-PHOSPHATE] ?
Output line: > 30 µM

Input line: Fill in: AC50 of CCCNC(C)C(=O)Nc1ccccc1C (centres undefined) is ___
Output line: > 30 µM

Input line: Dear colleague, I am looking for the recorded AC50 of the following compound: CCC(=O)OCC(=O)[C@@]1(OC(=O)CC)[C@@H](C)C[C@H]2[C@@H]3CCC4=CC(=O)C=C[C@]4(C)[C@@]3(F)[C@@H](O)C[C@@]21C [BETAMETHASONE DIPROPIONATE]
Output line: > 30 µM

Input line: Record request: AC50 value, item `O=C1CN=C(c2ccccc2)c2cc(Cl)ccc2N1`
Output line: > 10 µM
